These entries and their values trace back to patent US9586951B2.

molecular target: ATM (Homo sapiens, UniProt Q13315); construct: detecting phosphorylation of Chk2 in a human non-small cell lung cancer cell line NCI-H460 (ATCC company); host or cells: NCI-H460 human non-small cell lung cancer cells; assay: ATM inhibition test (phosphorylation of Chk2 generated by ionizing radiation, AlphaScreen SureFire); type: cell-based; conditions: phosphorylated Chk2 in NCI-H460 cells, ionizing radiation 8Gy, 1 hour after test compound treatment; read-out: ATM inhibitory activity
Sequence (Q13315 whole entry): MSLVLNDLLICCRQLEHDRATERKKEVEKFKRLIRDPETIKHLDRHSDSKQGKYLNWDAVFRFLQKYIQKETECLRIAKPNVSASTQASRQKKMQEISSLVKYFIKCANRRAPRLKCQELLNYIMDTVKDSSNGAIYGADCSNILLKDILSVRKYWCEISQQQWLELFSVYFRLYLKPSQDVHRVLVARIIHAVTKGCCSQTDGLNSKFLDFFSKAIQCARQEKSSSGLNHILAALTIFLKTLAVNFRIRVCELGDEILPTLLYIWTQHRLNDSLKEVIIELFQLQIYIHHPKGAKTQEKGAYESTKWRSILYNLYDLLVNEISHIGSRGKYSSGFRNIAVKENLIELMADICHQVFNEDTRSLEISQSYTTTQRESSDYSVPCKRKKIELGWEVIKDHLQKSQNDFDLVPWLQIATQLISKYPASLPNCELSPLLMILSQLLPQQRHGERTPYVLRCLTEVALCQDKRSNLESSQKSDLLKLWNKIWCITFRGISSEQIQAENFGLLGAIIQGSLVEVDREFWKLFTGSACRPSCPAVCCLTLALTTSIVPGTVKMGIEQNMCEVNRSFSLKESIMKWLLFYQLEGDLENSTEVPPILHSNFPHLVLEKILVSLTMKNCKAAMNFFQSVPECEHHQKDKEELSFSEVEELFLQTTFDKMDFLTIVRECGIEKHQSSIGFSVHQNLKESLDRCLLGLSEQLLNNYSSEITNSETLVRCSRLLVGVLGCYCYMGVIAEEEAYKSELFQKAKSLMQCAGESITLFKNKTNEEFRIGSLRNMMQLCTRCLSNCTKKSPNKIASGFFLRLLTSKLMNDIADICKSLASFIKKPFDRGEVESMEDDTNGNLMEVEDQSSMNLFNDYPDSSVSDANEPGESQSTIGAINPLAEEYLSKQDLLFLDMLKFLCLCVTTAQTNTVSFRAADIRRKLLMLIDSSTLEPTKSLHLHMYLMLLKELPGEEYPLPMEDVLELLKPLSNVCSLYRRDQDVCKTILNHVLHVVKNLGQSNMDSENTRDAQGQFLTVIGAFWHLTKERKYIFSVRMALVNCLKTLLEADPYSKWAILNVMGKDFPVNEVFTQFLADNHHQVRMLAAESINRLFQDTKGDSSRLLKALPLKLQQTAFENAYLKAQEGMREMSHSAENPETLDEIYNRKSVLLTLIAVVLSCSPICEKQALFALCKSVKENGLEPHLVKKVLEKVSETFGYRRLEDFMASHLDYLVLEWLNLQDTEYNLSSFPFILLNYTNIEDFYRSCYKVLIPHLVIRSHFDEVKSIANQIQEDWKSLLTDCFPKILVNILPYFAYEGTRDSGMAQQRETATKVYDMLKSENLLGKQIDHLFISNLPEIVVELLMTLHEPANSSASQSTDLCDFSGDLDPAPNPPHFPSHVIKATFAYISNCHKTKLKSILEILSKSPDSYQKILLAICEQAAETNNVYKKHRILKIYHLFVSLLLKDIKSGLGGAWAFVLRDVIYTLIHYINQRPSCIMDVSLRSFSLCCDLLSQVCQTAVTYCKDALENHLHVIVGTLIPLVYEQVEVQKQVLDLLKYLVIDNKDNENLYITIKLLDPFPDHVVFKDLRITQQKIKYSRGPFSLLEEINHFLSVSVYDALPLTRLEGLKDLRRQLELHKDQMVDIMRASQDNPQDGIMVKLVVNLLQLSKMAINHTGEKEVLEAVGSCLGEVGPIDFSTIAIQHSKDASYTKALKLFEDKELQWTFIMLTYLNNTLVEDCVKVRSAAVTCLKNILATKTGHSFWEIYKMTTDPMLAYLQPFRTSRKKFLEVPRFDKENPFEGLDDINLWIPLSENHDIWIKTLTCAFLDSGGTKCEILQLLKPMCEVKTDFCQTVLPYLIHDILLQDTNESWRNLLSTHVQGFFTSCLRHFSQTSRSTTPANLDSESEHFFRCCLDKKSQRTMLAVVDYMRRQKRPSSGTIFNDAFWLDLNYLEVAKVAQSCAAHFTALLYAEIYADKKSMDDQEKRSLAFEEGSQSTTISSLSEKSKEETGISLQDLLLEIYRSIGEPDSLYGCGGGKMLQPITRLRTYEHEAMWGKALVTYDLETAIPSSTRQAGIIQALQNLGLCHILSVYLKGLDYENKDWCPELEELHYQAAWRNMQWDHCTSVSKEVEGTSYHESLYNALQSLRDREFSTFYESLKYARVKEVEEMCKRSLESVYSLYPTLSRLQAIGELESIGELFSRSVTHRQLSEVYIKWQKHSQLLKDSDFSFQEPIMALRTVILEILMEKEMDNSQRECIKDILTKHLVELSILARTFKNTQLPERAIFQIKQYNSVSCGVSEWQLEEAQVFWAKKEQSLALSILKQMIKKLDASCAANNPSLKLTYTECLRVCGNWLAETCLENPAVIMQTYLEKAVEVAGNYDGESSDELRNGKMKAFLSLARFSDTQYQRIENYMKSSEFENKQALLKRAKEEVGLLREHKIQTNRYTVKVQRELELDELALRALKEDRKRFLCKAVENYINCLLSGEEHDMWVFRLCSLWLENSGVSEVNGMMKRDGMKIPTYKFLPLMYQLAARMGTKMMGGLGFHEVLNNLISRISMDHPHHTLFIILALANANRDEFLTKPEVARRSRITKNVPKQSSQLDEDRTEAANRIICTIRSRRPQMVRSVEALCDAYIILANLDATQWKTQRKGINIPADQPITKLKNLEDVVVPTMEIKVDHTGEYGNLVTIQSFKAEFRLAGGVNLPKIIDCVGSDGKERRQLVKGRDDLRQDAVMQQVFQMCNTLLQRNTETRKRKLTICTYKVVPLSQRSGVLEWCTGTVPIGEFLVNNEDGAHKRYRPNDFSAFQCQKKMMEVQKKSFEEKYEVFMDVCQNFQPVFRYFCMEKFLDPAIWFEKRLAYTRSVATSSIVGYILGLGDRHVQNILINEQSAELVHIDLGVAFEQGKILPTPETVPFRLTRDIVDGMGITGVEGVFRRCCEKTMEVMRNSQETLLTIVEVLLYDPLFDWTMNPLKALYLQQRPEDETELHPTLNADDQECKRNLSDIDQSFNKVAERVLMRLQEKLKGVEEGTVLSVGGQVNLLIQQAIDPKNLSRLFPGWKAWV
Give measured IC50 for each item. Keep answers brief.

| compound | assayed_target | experimental_value |
| --- | --- | --- |
| COc1ccnc(C(C)Nc2ccc3c(c2)Cc2cccc(-c4cc(N5CCOCC5)cc(=O)[nH]4)c2O3)c1 (stereo not shown) [Example 2-14-20] | ATM (Homo sapiens, UniProt Q13315) | < 100 nM |
| Cc1cccc(CNc2ccc3c(c2)Sc2cccc(-c4cc(N5CCOCC5)cc(=O)[nH]4)c2O3)n1 [Example 4-8-5] | ATM (Homo sapiens, UniProt Q13315) | < 100 nM |
| O=c1cc(N2CCOCC2)cc(-c2cccc3c2Sc2ccc(NCc4cnccn4)cc2C3)[nH]1 [Example 3-8-5] | ATM (Homo sapiens, UniProt Q13315) | 500 to 2000 nM |
| Cc1ccc(C(Nc2ccc3c(c2)Sc2cccc(-c4cc(N5CCOCC5)cc(=O)[nH]4)c2S3)[C@H]2CN(CCN(C)C)CCO2)nc1 (single isomer, unassigned) [Example 10-2] | ATM (Homo sapiens, UniProt Q13315) | < 100 nM |
| O=c1cc(N2CCOCC2)cc(-c2cccc3c2Oc2cccc(N4CCOCC4)c2C3)[nH]1 [Example 2-60] | ATM (Homo sapiens, UniProt Q13315) | 100 to 500 nM |
| N#Cc1ccc(CCN2CCC(Nc3ccc4c(c3)Cc3cccc(-c5cc(N6CCOCC6)cc(=O)[nH]5)c3O4)CC2)cc1 [Example 2-30-19] | ATM (Homo sapiens, UniProt Q13315) | 500 to 2000 nM |

Provide the reported IC50 of each entry below, same order.
1. Cc1ccc(CNc2ccc3c(c2)Sc2cccc(-c4cc(N5CCOCC5)cc(=O)[nH]4)c2O3)cn1 [Example 4-8-23]
2. O=C(OCc1ccccc1)N1C[C@@H](N2CCOCC2)[C@H](Nc2ccc3c(c2)Sc2cccc(-c4cc(N5CCOCC5)cc(=O)[nH]4)c2S3)C1 (racemic) [Example 11-1]
3. CC(Nc1ccc2c(c1)Sc1cccc(-c3cc(N4CCOCC4)cc(=O)[nH]3)c1S2)C(=O)N1CCCC1C (stereo not shown) [Example 1-18-6]
4. Cc1cnc(C(C)Nc2ccc3c(c2)Sc2cccc(-c4cc(N5CCOCC5)cc(=O)[nH]4)c2S3)cn1 (single isomer, unassigned) [Example 1-12-137-1]
5. O=c1cc(N2CCOCC2)cc(-c2cccc3c2Oc2ccc(NCc4cncc(N5CCCC5)c4)cc2C3)[nH]1 [Example 2-2-63]

## Output
< 100 nM
100 to 500 nM
100 to 500 nM
< 100 nM
100 to 500 nM

Provide the reported IC50 of each entry below, same order.
1. COC1CCN(CCNc2ccc3c(c2)Sc2cccc(-c4cc(N5CCOCC5)cc(=O)[nH]4)c2S3)CC1 [Example 1-10-15]
2. Cc1ccc(C(CCC2OCCCO2)Nc2ccc3c(c2)Sc2cccc(-c4cc(N5CCOCC5)cc(=O)[nH]4)c2S3)nc1 (stereo not shown) [Example 1-12-131]

## Output
1: 100 to 500 nM; 2: < 100 nM
